Tested on: CAL-51
experiment notes: normalised viability (% of control), CellTiter-Blue; higher = more viable cells (about 100 = DMSO control)
test settings: incubation time: 72 h
For each record, write down the corresponding normalised viability.

Return value of normalised viability for input COc1cc(CCc2cc(NC(=O)c3ccc(N4CC(C)NC(C)C4)cc3)n[nH]2)cc(OC)c1 (centres undefined) [AZD4547] (30 nM) , no commentary. 107%

Return value of normalised viability for input Cn1cc(CNCC2CCN(c3ncc(C(=O)NO)cn3)CC2)c2ccccc21 (30 nM) , no commentary. 70.1%

Return value of normalised viability for input O=C(Nc1c[nH]nc1-c1nc2ccc(CN3CCOCC3)cc2[nH]1)NC1CC1 [AT9283] (300 nM) , no commentary. 59.1%

Return value of normalised viability for input O=S(=O)(c1cccc2cnccc12)N1CCCNCC1 [Fasudil] (300 nM) , no commentary. 107%

----------
Test system: BT-474
test settings: 72 h
Response field label takes Criterion met when EC50, CellTiter-Glo is strictly below 500 nM and Criterion not met in all other cases.

Is 500 nM strictly greater than the compound's reported EC50, CellTiter-Glo? compound: CC[C@@]1(O)C(=O)OCc2c1cc1n(c2=O)Cc2cc3c(CN(C)C)c(O)ccc3nc2-1 Criterion not met

Is 500 nM strictly greater than the compound's reported EC50, CellTiter-Glo? compound: CS(=O)(=O)N1CCN(Cc2cc3nc(-c4cccc5[nH]ncc45)nc(N4CCOCC4)c3s2)CC1 Criterion not met

Is 500 nM strictly greater than the compound's reported EC50, CellTiter-Glo? compound: O=C(NC[C@H](O)CO)c1ccncc1Nc1ccc(I)cc1F Criterion met

Is 500 nM strictly greater than the compound's reported EC50, CellTiter-Glo? compound: Nc1ccccc1NC(=O)c1ccc(CNc2nccc(-c3cccnc3)n2)cc1 Criterion not met

Is 500 nM strictly greater than the compound's reported EC50, CellTiter-Glo? compound: CC(=O)OC[C@H]1O[C@@H]([S-])[C@H](OC(C)=O)[C@@H](OC(C)=O)[C@@H]1OC(C)=O.CCP(CC)CC.[Au+] Criterion not met

Is 500 nM strictly greater than the compound's reported EC50, CellTiter-Glo? compound: COc1nc(N)nc2c1ncn2[C@@H]1O[C@H](CO)[C@@H](O)[C@@H]1O Criterion not met

Is 500 nM strictly greater than the compound's reported EC50, CellTiter-Glo? compound: COc1ccc(-c2cc3c(C)nc(N)nc3n([C@H]3CC[C@H](OCCO)CC3)c2=O)cn1 Criterion met

Is 500 nM strictly greater than the compound's reported EC50, CellTiter-Glo? compound: Cc1c(CN2CCN(C(=O)[C@H](C)O)CC2)sc2c(N3CCOCC3)nc(-c3cnc(N)nc3)nc12 Criterion met

----------
Test system: MDA-MB-468
experiment notes: normalised response (% of control), CellTiter-Glo; higher = more viable cells (100 = DMSO, 0 = benzethonium chloride kill control)
test settings: incubation time: 72 h
For each record, write down the corresponding normalised response.
Quick note: give the figure in %, leave out the unit.

Return value of normalised response for input O=C1c2c(O)ccc(O)c2C(=O)c2c(NCCNCCO)ccc(NCCNCCO)c21 [Mitoxantrone] (0.1 nM) , no commentary. 97.8

Return value of normalised response for input COc1cc(CCc2cc(NC(=O)c3ccc(N4CC(C)NC(C)C4)cc3)n[nH]2)cc(OC)c1 (stereo unspecified) [AZD4547] (1 nM) , no commentary. 97.8

Return value of normalised response for input Cn1cc(CNCC2CCN(c3ncc(C(=O)NO)cn3)CC2)c2ccccc21 [Quisinostat] (0.1 nM) , no commentary. 109

Return value of normalised response for input CCC/C=C/C=C/C(=O)O[C@H]1/C(=C/C(=O)OC)C[C@H]2C[C@H]([C@@H](C)O)OC(=O)C[C@H](O)C[C@@H]3C[C@H](OC(C)=O)C(C)(C)[C@](O)(C[C@@H]4C/C(=C/C(=O)OC)C[C@H](/C=C/C(C)(C)[C@]1(O)O2)O4)O3 [Bryostatin 1] (0.1 nM) , no commentary. 94.3

Return value of normalised response for input Cc1cccc(-c2nn3c(c2-c2ccnc4ccc(C(N)=O)cc24)CCC3)n1 [Galunisertib] (0.1 nM) , no commentary. 116

Return value of normalised response for input Cc1cccc(-c2nn3c(c2-c2ccnc4ccc(C(N)=O)cc24)CCC3)n1 [Galunisertib] (100 nM) , no commentary. 107

Origin of the recorded values: the supplement of paper PMC4862054
